assay: Equilibrium solubility at room temperature at different pH values (Tables 1, 4, note to Table 5); conditions: pH 7
RESULT TYPE: solubility thermodynamic (µg/mL)
Answer in µg/mL, number only, no unit symbol.

Problem: State the recorded solubility thermodynamic for this entry: CN1C(C(=O)Nc2ccccn2)=C(O)c2ccccc2S1(=O)=O
Result: 570

----------
assay: physchem; settings: pH 4
RESULT TYPE: solubility thermodynamic (µg/mL)
# value in µg/mL; strip the unit string

Problem: Which solubility thermodynamic value belongs to COc1ccc(Cl)cc1C(=O)NCCc1ccc(S(=O)(=O)NC(=O)NC2CCCCC2)cc1 [G, Glibenclamide] ?
Result: 4

----------
experiment: physchem; settings: pH 7.5
RESULT TYPE: solubility thermodynamic
Give me the value, and tack the unit on after it.

COMPOUND	RESULT TYPE	REPORTED VALUE
COc1ccc(Cl)cc1C(=O)NCCc1ccc(S(=O)(=O)NC(=O)NC2CCCCC2)cc1 [G, Glibenclamide]	solubility thermodynamic	20 µg/mL

Continue with the next compound.
Problem: // solubility thermodynamic lookup, key: CN1C(C(=O)Nc2ccccn2)=C(O)c2ccccc2S1(=O)=O [P, Piroxicam]
Result: 1030 µg/mL

----------
test: physchem
RESULT TYPE: solubility thermodynamic

Problem: I'd like to know its solubility thermodynamic. The molecule in question is NS(=O)(=O)c1cc2c(cc1Cl)N=CNS2(=O)=O [Chlorothiazide]
Result: 400 to 700 µg/mL

----------
assay: Equilibrium solubility at room temperature at different pH values (Tables 1, 4, note to Table 5); settings: pH 1.2
RESULT TYPE: solubility thermodynamic (µg/mL)
Kindly provide the numeric value in µg/mL only, without the unit symbol.

Problem: GET /values?readout=solubility thermodynamic&item= CN1C(C(=O)Nc2ccccn2)=C(O)c2ccccc2S1(=O)=O
Result: 108

----------
assay: physchem; settings: pH 7.39
RESULT TYPE: solubility thermodynamic (µg/mL)
The reply should contain only the number, in µg/mL.

Problem: Item under review: COc1ccc(Cl)cc1C(=O)NCCc1ccc(S(=O)(=O)NC(=O)NC2CCCCC2)cc1 [G, Glibenclamide] . Reported solubility thermodynamic?
Result: 18.8

Cited source for all entries: patent US5773029A
